Test system: IGROV-1
Experiment: Cytotoxicity against human IGROV1 cells assessed as cell growth at 10 uM after 48 hrs by SRB assay relative to control
Assay type: functional
Conditions: IGROV-1, 48 h, read-out: Activity

# Molecular string, Tgt, growth at 10 µM
records = [
    ("CSC1=Nc2c(c(C)c(C)n2CCCC(=O)NCCc2cnc[nH]2)C2=NC(=O)CN12", "IGROV-1", "94%"),
    ("CSC1=Nc2c(c(C)c(-c3ccccc3)n2CCCCl)C2=NC(=O)CN12", "IGROV-1", "48%"),
    ("CSC1=Nc2c(c(C)c(-c3ccccc3)n2CCCN2CCN(C)CC2)C2=NC(=O)CN12", "IGROV-1", "92%"),
    ("CSC1=Nc2c(c(C)c(-c3ccccc3)n2CCCC(=O)O)C2=NC(=O)CN12", "IGROV-1", "88%"),
]

###

Tested on: OVCAR-4
Assay: Cytotoxicity against human OVCAR4 cells assessed as cell growth at 10 uM after 48 hrs by SRB assay relative to control
Type: functional
Conditions: OVCAR-4, 48 h, read-out: Activity

# Compound, growth at 10 µM, %
rows = [
    ("CSC1=Nc2c(c(C)c(-c3ccccc3)n2CCCN2CCCCC2)C2=NC(=O)CC(C)N12 (stereo not given)", 44),
    ("CSC1=Nc2c(c(C)c(C)n2CCCC(=O)NCCc2cnc[nH]2)C2=NC(=O)CN12", 93),
    ("CSC1=Nc2c(c(C)c(-c3ccccc3)n2CCCCl)C2=NC(=O)CN12", 76),
    ("CSC1=Nc2c(c(C)c(-c3ccccc3)n2CCCN2CCN(C)CC2)C2=NC(=O)CN12", 89),
    ("CCOC(=O)CCCn1c2c(c(C)c1-c1ccccc1)C1=NC(=O)CN1C(SC)=N2", 94),
]

###

System: RXF 393
Assay: Cytotoxicity against human RXF393 cells assessed as cell growth at 10 uM after 48 hrs by SRB assay relative to control
Format: functional
Conditions: RXF 393, 48 h, read-out: Activity
Measured parameter: growth at 10 µM (%)

# Compound, Tgt, Measured parameter, Numeric readout
records = [
    ("CSC1=Nc2c(c(C)c(-c3ccccc3)n2CCCC(=O)O)C2=NC(=O)CN12", "RXF 393", "growth at 10 µM", 96),
    ("CSC1=Nc2c(c(C)c(-c3ccccc3)n2CCCN2CCCCC2)C2=NC(=O)CC(C)N12 (centres undefined)", "RXF 393", "growth at 10 µM", 56),
    ("CSC1=Nc2c(c(C)c(C)n2CCCC(=O)NCCc2cnc[nH]2)C2=NC(=O)CN12", "RXF 393", "growth at 10 µM", 116),
    ("CCOC(=O)CCCn1c2c(c(C)c1-c1ccccc1)C1=NC(=O)CN1C(SC)=N2", "RXF 393", "growth at 10 µM", 108),
    ("CSC1=Nc2c(c(C)c(C)n2CCCC(=O)O)C2=NC(=O)CN12", "RXF 393", "growth at 10 µM", 122),
    ("CCOC(=O)CCCn1c(C)c(C)c2c1N=C(SC)N1CC(=O)N=C21", "RXF 393", "growth at 10 µM", 121),
    ("CSC1=Nc2c(c(C)c(-c3ccccc3)n2CCCN2CCN(C)CC2)C2=NC(=O)CN12", "RXF 393", "growth at 10 µM", 106),
    ("COC(=O)C(Cc1cnc[nH]1)NC(=O)CCCn1c(C)c(C)c2c1N=C(SC)N1CC(=O)N=C21 (centres undefined)", "RXF 393", "growth at 10 µM", 112),
    ("CSC1=Nc2c(c(C)c(-c3ccccc3)n2CCCCl)C2=NC(=O)CN12", "RXF 393", "growth at 10 µM", 95),
]
